System: NCI-H522
Experiment: relative viability (nuclei count vs DMSO), 5 days (fraction); higher = more cells survive
Details: first compound 2.53 µM
This section presents compounds with their documented relative viability values.
READOUT KIND: relative viability

{"COMPOUND": "Nc1cccc2c1CN(C1CCC(=O)NC1=O)C2=O (centres undefined) [Lenalidomide] + Cc1nc(Nc2ncc(C(=O)Nc3c(C)cccc3Cl)s2)cc(N2CCN(CCO)CC2)n1 [Dasatinib] (partner 0.075 µM)", "EXPERIMENTAL TARGET": "NCI-H522", "VALUE": 0.749}
{"COMPOUND": "Nc1cccc2c1CN(C1CCC(=O)NC1=O)C2=O (centres undefined) [Lenalidomide] + Cc1cc(Nc2cc(N3CCN(C)CC3)nc(Sc3ccc(NC(=O)C4CC4)cc3)n2)n[nH]1 [Tozasertib] (partner 0.1 µM)", "EXPERIMENTAL TARGET": "NCI-H522", "VALUE": 0.52}
{"COMPOUND": "Nc1cccc2c1CN(C1CCC(=O)NC1=O)C2=O (centres undefined) [Lenalidomide] + O=C(c1cc(Cc2n[nH]c(=O)c3ccccc23)ccc1F)N1CCN(C(=O)C2CC2)CC1 [Olaparib] (partner 8 µM)", "EXPERIMENTAL TARGET": "NCI-H522", "VALUE": 0.58}
{"COMPOUND": "Nc1cccc2c1CN(C1CCC(=O)NC1=O)C2=O (centres undefined) [Lenalidomide] + N=C(N)NC(=N)NCCc1ccccc1 [Phenformin] (partner 250 µM)", "EXPERIMENTAL TARGET": "NCI-H522", "VALUE": 0.643}

====

# key: entry, value: relative viability
Tested on: HOP-62
Test: relative viability (nuclei count vs DMSO), 5 days (fraction); higher = more cells survive
Details: first compound 0.6325 µM

{"COMPOUND": "Cc1csc(=NC2CCCCC2)n1/N=C/c1ccc(O)c(O)c1O [MIM1] + Nc1ncn([C@H]2C[C@H](O)[C@@H](CO)O2)c(=O)n1 [Decitabine] (partner 2 µM)", "relative viability": 0.222}
{"COMPOUND": "CN1CCN(CCOc2cc(OC3CCOCC3)c3c(Nc4c(Cl)ccc5c4OCO5)ncnc3c2)CC1 [Saracatinib] + CC(=O)c1c(C)c2cnc(Nc3ccc(N4CCNCC4)cn3)nc2n(C2CCCC2)c1=O [Palbociclib] (partner 0.5 µM)", "relative viability": 0.459}
{"COMPOUND": "Cc1csc(=NC2CCCCC2)n1/N=C/c1ccc(O)c(O)c1O [MIM1] + CC1(C)CCC(c2ccc(Cl)cc2)=C(CN2CCN(c3ccc(C(=O)NS(=O)(=O)c4ccc(N[C@H](CCN5CCOCC5)CSc5ccccc5)c(S(=O)(=O)C(F)(F)F)c4)cc3)CC2)C1 [Navitoclax] (partner 0.5 µM)", "relative viability": 1.11}
{"COMPOUND": "CN1CCN(CCOc2cc(OC3CCOCC3)c3c(Nc4c(Cl)ccc5c4OCO5)ncnc3c2)CC1 [Saracatinib] + O=C(CCCCCCC(=O)Nc1ccccc1)NO [Vorinostat] (partner 1 µM)", "relative viability": 0.769}
{"COMPOUND": "Cc1csc(=NC2CCCCC2)n1/N=C/c1ccc(O)c(O)c1O [MIM1] + C[C@@H](Oc1cc(-c2cnn(C3CCNCC3)c2)cnc1N)c1c(Cl)ccc(F)c1Cl [Crizotinib] (partner 1 µM)", "relative viability": 0.914}
{"COMPOUND": "Cc1csc(=NC2CCCCC2)n1/N=C/c1ccc(O)c(O)c1O [MIM1] + Cc1cc(Nc2cc(N3CCN(C)CC3)nc(Sc3ccc(NC(=O)C4CC4)cc3)n2)n[nH]1 [Tozasertib] (partner 0.1 µM)", "relative viability": 0.378}
{"COMPOUND": "CN1CCN(CCOc2cc(OC3CCOCC3)c3c(Nc4c(Cl)ccc5c4OCO5)ncnc3c2)CC1 [Saracatinib] + Cc1nc(Nc2ncc(C(=O)Nc3c(C)cccc3Cl)s2)cc(N2CCN(CCO)CC2)n1 [Dasatinib] (partner 0.075 µM)", "relative viability": 0.766}
{"COMPOUND": "CN1CCN(CCOc2cc(OC3CCOCC3)c3c(Nc4c(Cl)ccc5c4OCO5)ncnc3c2)CC1 [Saracatinib] + CC(C)C[C@H](NC(=O)[C@H](Cc1ccccc1)NC(=O)c1cnccn1)B(O)O [Bortezomib] (partner 0.002 µM)", "relative viability": 0.692}
{"COMPOUND": "CN1CCN(CCOc2cc(OC3CCOCC3)c3c(Nc4c(Cl)ccc5c4OCO5)ncnc3c2)CC1 [Saracatinib] + C[C@]1(O)C[C@@H](c2nc(-c3ccc4ccc(-c5ccccc5)nc4c3)c3c(N)nccn32)C1 [Linsitinib] (partner 1 µM)", "relative viability": 1.35}
